Cited source: ChEMBL document CHEMBL5724696

- Tested on: TERT-RPE1
- EXPERIMENT SUMMARY: Here: values are normalized to the negative (DMSO; defined as 0% autophagy induction) and positive (250nM Torin1; mTOR inhibitor; defined as maximal inducer of autophagy = 100%) control compounds and represented as % of autophagy induction. […] The impact of autophagy induction on cells is complex and depends on the affected target. As such, the magnitude of a phenotype may not be equally mirrored in the %-value of autophagy induction and vice versa. The dynamics of the induction may indicate the mode of activation: e.g. activation via phosphorylation or a signaling cascade may occur fast, while activation via transcription factors may take considerably longer. […] Of note, treatment concentrations may be sub-optimal for specific compounds, leading to false negative annotations.
- Assay type: functional, Homo sapiens
- EXPERIMENTAL SETUP: Compound Concentration 2 uM, Timepoint 24 hours, Culturing Media DMEM/F12 (1:1), 1 % Penicillin/Streptomycin, 10% Fetal bovin serum Add-On: No, Screening Media Control DMEM/F12 (1:1), Screening Media Samples DMEM/F12 (1:1)
Entries and their measured autophagy induction follow.
MEASURED ENDPOINT: autophagy induction (%)

{"MOLECULE": "O=C(Cc1ccccc1)Nc1nc2ccc(Cl)cc2c2nc(-c3ccco3)nn12", "MEASURED ENDPOINT": "autophagy induction", "VAL": -7.632}
{"MOLECULE": "CN(C(=O)Cc1ccc(Cl)c(Cl)c1)C(CN1CCCC1)c1cccc(OCC(=O)O)c1.Cl (stereo not given)", "MEASURED ENDPOINT": "autophagy induction", "VAL": -6.772}
{"MOLECULE": "Cc1c(C2=CCN(C(=O)N(C)C(C)C)CC2)nnn1-c1cccnc1F", "MEASURED ENDPOINT": "autophagy induction", "VAL": -6.124}
{"MOLECULE": "C/C(=N\\NC(=O)[C@@H]1C(=O)NC[C@H]1c1ccccc1)c1cccc(Br)c1", "MEASURED ENDPOINT": "autophagy induction", "VAL": -9.581}
{"MOLECULE": "Cc1cn2cc(CC(=O)N3CCC4(CC3)CN(Cc3ccc(-n5nccn5)cc3Cl)C4)nc2s1", "MEASURED ENDPOINT": "autophagy induction", "VAL": -6.112}
